Tested on: MILI (PIWIL2) piRISC loaded with Kctd7 piRNA (26 nt);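 also: 1 nM active piRISC with 0.1 nM target library at 33 °C single turnover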
Experiment: pre-steady-state target cleavage rate (min^-1); MIWI and MILI are mouse PIWI proteins and EfPiwi is from a freshwater sponge; tags in brackets are library labels; higher = faster piRNA-guided slicing of the target;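 also: 1 nM active piRISC with 0.1 nM target library at 33 °C single turnover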
Conditions: guide: Kctd7 piRNA 5'p-UGUUAAUCUCUCAGAGAAGGUGACAG; auxiliary factor: 500 nM mouse GTSF1
In all, about 3,700 sequences were measured (“pre-steady-state target cleavage rate”: median about 0.02, highest 2% from about 0.23 on). This excerpt belongs to a sample that is enriched for the highest values.
quantity: pre-steady-state target cleavage rate
Hey, just send me the number, nothing else.

Worked examples follow.
chain_sequence=UAGUCUGUCACCUUCUCUGAGAGAUCAACA target_of_assay="MILI (PIWIL2) piRISC loaded with Kctd7 piRNA (26 nt)" quantity="pre-steady-state target cleavage rate" endpoint_result=0.114
chain_sequence=UAGUCUUCACCUUCUCUGAGAGAUUAACA target_of_assay="MILI (PIWIL2) piRISC loaded with Kctd7 piRNA (26 nt)" quantity="pre-steady-state target cleavage rate" endpoint_result=0.213
chain_sequence=UAGUGAGUCACCUUCUCUGAGAGAUUCAACA target_of_assay="MILI (PIWIL2) piRISC loaded with Kctd7 piRNA (26 nt)" quantity="pre-steady-state target cleavage rate" endpoint_result=0.279
chain_sequence=UAGUGAGUCACCUUCUGUGUGAGAUUAACA target_of_assay="MILI (PIWIL2) piRISC loaded with Kctd7 piRNA (26 nt)" quantity="pre-steady-state target cleavage rate" endpoint_result=0.0434
chain_sequence=UAGUCUGUCAACCUUCUCUGAGAGAUUAACA target_of_assay="MILI (PIWIL2) piRISC loaded with Kctd7 piRNA (26 nt)" quantity="pre-steady-state target cleavage rate" endpoint_result=0.0716
chain_sequence=UAGUCUGUCACCUUCUCUGAGAGAUUUAACA target_of_assay="MILI (PIWIL2) piRISC loaded with Kctd7 piRNA (26 nt)" quantity="pre-steady-state target cleavage rate" endpoint_result=0.245
chain_sequence=UAGUCUGUCACCUUCUCUGAGAGAUUUUCA target_of_assay="MILI (PIWIL2) piRISC loaded with Kctd7 piRNA (26 nt)" quantity="pre-steady-state target cleavage rate" endpoint_result=0.12
chain_sequence=UAGUCUGUCACCUUCUCUGAGAGAUUACACA target_of_assay="MILI (PIWIL2) piRISC loaded with Kctd7 piRNA (26 nt)" quantity="pre-steady-state target cleavage rate" endpoint_result=0.153

Note to self: pre-steady-state target cleavage rate recorded for `UAGUCUGUCACCUUCUCUGAGAGAUUCAACA` was 0.324

Memo: `UAGUCUCUCACCUUGUCUGAGAGAUUAACA` , reported pre-steady-state target cleavage rate: 0.0068

Noted for `UAGUCUGUCACCUUCUCUGAGAGAUUCACA` : its pre-steady-state target cleavage rate reads 0.265

Entry `UAGUCGUGUCACCUUCUCUGAGAGAUUAACA` ; pre-steady-state target cleavage rate = 0.199
